target: Neu5Ac(a2-3)Gal(b1-4)GlcNAc(b1-2)Man(a1-3)[GlcNAc(b1-4)][Neu5Ac(a2-3)Gal(b1-4)GlcNAc(b1-2)Man(a1-6)]Man(b1-4)GlcNAc(b1-4)GlcNAc; assay: glycan array binding signal (z-score within array); higher = stronger binding; conditions: glycan notation: IUPAC condensed, linker removed
The sample as a whole holds a higher share of the strongest signals than the screen did.
Reported glycan array binding signal (z-score) values follow for various binders
readout-name: glycan array binding signal (z-score)

>>> number("Dectin2 (Homo sapiens), Q6EIG7 (protein) MMQEQQPQSTEKRGWLSLRLWSVAGISIALLSACFIVSCVVTYHFTYGETGKRLSELHSYHSSLTCFSEGTKVPAWGCCPASWKSFGSSCYFISSEEKVWSKSEQNCVEMGAHLVVFNTEAEQNFIVQQLNESFSYFLGLSDPQGNNNWQWIDKTPYEKNVRFWHLGEPNHSAEQCASIVFWKPTGWGWNDVICETRRNSICEMNKIYL")
-0.193
>>> number("Nictaba (Nicotiana tabacum), Q94EW1 (protein) MQGQWIAARDLSITWVDNPQYWTWKTVDPNIEVAELRRVAWLDIYGKIETKNLIRKTSYAVYLVFKLTDNPRELERATASLRFVNEVAEGAGIEGTTVFISKKKKLPGELGRFPHLRSDGWLEIKLGEFFNNLGEDGEVEMRLMEINDKTWKSGIIVKGFDIRPN")
-0.37
>>> number("LCA (Lens culinaris), P02870 (protein) MASLQTQMISFYLIFLSILLTTIFFFKVNSTETTSFSITKFSPDQKNLIFQGDGYTTKGKLTLTKAVKSTVGRALYSTPIHIWDRDTGNVANFVTSFTFVIDAPSSYNVADEFTFFIAPVDTKPQTGGGYLGVFNSKEYDKTSQTVAVEFDTFYNAAWDPSNKERHIGIDVNSIKSVNTKSWNLQNGERANVVIAFNAATNVLTVTLTYPNSLEEENVTSYTLNEVVPLKDVVPEWVRIGFSATTGAEFAAHEVHSWSFHSELGGTSSSKQAADA")
-0.262
>>> number("Mincle (Bos taurus) (protein) MNSSTSPASQTERRCFSFQLFSWAIAGTSILLLSACFITRCVVTYSIFQLCDEKKFQPPGDSMELSCYNDGSGSVKNCCPLKWFHFQSSCYLFSPDTMSWRASLKNCSSMGAHLVVINTQEEQEFLYYTKPRKKEFYIGLTDQVTEGQWQWVDGTPFTKSLSFWDAGEPNNLVIVEDCATIRDSSNPRQNWNDVPCFFNMFRVCEMPERKI")
0.061
>>> number("Cohesin-hDCIR (Homo sapiens) (protein) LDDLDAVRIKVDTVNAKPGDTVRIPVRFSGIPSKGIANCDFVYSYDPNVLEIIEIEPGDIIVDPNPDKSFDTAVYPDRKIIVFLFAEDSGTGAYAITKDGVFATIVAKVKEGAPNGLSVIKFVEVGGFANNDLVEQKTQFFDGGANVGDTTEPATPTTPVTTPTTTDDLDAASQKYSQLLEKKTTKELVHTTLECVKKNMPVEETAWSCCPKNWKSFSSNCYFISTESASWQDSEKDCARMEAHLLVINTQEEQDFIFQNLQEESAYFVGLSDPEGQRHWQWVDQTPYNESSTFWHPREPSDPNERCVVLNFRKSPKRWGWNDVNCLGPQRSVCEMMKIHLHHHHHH")
-0.66
